biological target: Factor X (FX), P00742
Sequence (P00742 whole entry, looked up): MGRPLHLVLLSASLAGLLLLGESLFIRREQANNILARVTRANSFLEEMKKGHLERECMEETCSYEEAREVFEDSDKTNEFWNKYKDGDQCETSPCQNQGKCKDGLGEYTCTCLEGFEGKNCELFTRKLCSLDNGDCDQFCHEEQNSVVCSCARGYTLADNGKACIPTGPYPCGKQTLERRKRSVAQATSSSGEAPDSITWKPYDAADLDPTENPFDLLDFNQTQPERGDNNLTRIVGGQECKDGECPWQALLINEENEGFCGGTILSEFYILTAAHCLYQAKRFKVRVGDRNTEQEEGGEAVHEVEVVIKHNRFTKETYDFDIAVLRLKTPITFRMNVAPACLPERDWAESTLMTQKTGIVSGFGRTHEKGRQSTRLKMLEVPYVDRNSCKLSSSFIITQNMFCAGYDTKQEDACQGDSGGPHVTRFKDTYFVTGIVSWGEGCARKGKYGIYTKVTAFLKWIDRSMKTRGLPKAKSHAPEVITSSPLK
OBSERVED PROPERTY: KM (µM)
Lab book: enter the figure in µM, no units written.

Entry under test: FIXa R318Y/R403E/E410N (protein) chain 1: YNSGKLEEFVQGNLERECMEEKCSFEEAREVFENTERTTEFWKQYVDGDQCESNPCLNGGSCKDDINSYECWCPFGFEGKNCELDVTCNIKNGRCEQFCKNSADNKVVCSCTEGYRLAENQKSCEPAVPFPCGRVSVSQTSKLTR chain 2: VVGGEDAKPGQFPWQVVLNGKVDAFCGGSIVNEKWIVTAAHCVETGVKITVVAGEHNIEETEHTEQKRNVIRIIPHHNYNAAINKYNHDIALLELDEPLVLNSYVTPICIADKEYTNIFLKFGSGYVSGWGRVFHKGYSALVLQYLRVPLVDRATCLRSTKFTIYNNMFCAGFHEGGRDSCQGDSGGPHVTEVEGTSFLTGIISWGEECAMKGKYGIYTKVSEYVNWIKNKTKLT . Its KM was 0.0942
